Target: purified recombinant human Aggrecanase-1 (rAgg1) (Homo sapiens, UniProt O75173)
Test: In vitro fluorescence screen for Aggrecanase-1 inhibitors
Assay type: biochemical
Conditions: Table 1; read-out: Agg1 IC50
VALUE_TYPE: IC50 (nM)

{"MOLECULE": "O=C(O)CC[C@H](NC(=O)c1ccc(-c2ccccc2)cc1)C(=O)NCc1ccccc1 [Example 8EEEE]", "SYSTEM_UNDER_TEST": "purified recombinant human Aggrecanase-1 (rAgg1) (Homo sapiens, UniProt O75173)", "IC50 (nM)": 400}
{"MOLECULE": "COc1ccc(CNC(=O)[C@H](CCC(=O)O)NC(=O)c2ccc(-c3ccccc3)cc2)cc1 [Example 8K]", "SYSTEM_UNDER_TEST": "purified recombinant human Aggrecanase-1 (rAgg1) (Homo sapiens, UniProt O75173)", "IC50 (nM)": 300}

====

Target: purified recombinant human Aggrecanase-1 (rAgg1) (Homo sapiens, UniProt O75173)
Sequence (O75173 213-837): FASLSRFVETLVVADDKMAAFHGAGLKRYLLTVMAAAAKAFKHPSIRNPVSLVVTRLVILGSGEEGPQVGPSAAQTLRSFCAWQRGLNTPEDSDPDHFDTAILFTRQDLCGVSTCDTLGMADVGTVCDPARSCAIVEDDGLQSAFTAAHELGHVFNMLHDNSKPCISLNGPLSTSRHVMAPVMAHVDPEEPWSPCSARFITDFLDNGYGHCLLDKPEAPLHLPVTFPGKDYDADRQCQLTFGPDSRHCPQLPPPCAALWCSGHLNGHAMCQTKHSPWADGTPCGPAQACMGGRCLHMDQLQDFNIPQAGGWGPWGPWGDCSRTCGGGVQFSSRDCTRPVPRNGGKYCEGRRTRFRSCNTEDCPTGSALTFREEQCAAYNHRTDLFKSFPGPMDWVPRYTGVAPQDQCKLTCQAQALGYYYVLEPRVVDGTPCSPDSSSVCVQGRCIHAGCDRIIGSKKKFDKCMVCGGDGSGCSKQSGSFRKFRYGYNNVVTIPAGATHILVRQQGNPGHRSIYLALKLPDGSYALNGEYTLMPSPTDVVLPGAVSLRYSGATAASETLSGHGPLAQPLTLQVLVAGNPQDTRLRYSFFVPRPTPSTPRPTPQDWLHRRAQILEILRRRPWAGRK
Assay: In vitro fluorescence screen for Aggrecanase-1 inhibitors
Format: biochemical
Settings: Table 1; read-out: Agg1 IC50
pIC50: −log10 of the molar value.
VALUE_TYPE: pIC50

Here's what some known entries look like.
{"MOLECULE": "O=C(O)CC[C@H](NC(=O)c1ccc(-c2ccccc2)cc1)C(=O)NCc1ccncc1", "VALUE": 6.48}
{"MOLECULE": "O=C(O)CC[C@H](NC(=O)c1ccc(-c2ccccc2)cc1)C(=O)NCCc1ccc(-c2ccccn2)cc1 [Example 10G]", "VALUE": 6.00}

[I] O=C(O)CC[C@H](NC(=O)c1ccc(-c2ccccc2)cc1)C(=O)NCCc1cccs1
[II] O=C(O)CC[C@H](NC(=O)c1ccc2c(c1)C(=O)c1ccccc1-2)C(=O)NCCCc1ccccc1
# returns the entry with the larger pIC50; inputs I and II // caller expects the label of the chosen entry
I
(I: 7.15, II: 6.84)

====

Target: recombinant human catalytic domain of MMP-14 (Homo sapiens, UniProt P50281)
Construct: 177 amino acids corresponding to Tyr89-Gly265 of mature human enzyme
Assay: In vitro fluorescence assay of MMP-14 activity
Settings: Table 1; unit inferred
VALUE_TYPE: IC50

{"COMPOUND": "Cc1cc(C)cc(-c2ccc(C(=O)N[C@@H](CCC(=O)O)C(=O)NCc3ccccc3)cc2)c1 [Example 13A]", "IC50": "> 100 µM"}
{"COMPOUND": "O=C(O)CC[C@H](NC(=O)c1ccc(-c2ccccc2)cc1)C(=O)NCCc1ccc(F)cc1", "IC50": "> 66.6 µM"}
{"COMPOUND": "O=C(O)CC[C@H](NC(=O)c1ccc(-c2ccccc2)cc1)C(=O)NCc1cccc(-c2ccccn2)c1 [Example 10Q]", "IC50": "> 50 µM"}

I'd like to know its IC50. The compound in question is CCCCNC(=O)[C@H](CCC(=O)O)NC(=O)c1ccc(-c2ccccc2)cc1
~25 µM

# lookup: IC50 of COc1ccc(CCNC(=O)[C@H](CCC(=O)O)NC(=O)c2ccc(-c3ccccc3)cc2)cc1
13 µM

Return reported IC50; argument: CCCCCCNC(=O)[C@H](CCC(=O)O)NC(=O)c1ccc(-c2ccccc2)cc1
> 66.6 µM

What measured IC50 goes with O=C(O)CC[C@H](NC(=O)c1ccc(-c2ccco2)cc1)C(=O)NCc1ccccc1 [Example 12A] ?
~2 µM

Using the record for O=C(O)CC[C@H](NC(=O)c1ccc(-c2ccccc2)cc1)C(=O)NCc1ccc(Cl)c(Cl)c1 , report its IC50.
~25 µM

So what's the measured IC50 for this one? CCOc1cccc(-c2ccc(C(=O)N[C@@H](CCC(=O)O)C(=O)NCc3ccccc3)cc2)c1 [Example 13D]
> 100 µM

# get_value(readout='IC50', item= O=C(O)CC[C@H](NC(=O)c1ccc(-c2ccccc2)cc1)C(=O)NCc1cccc(-c2cccs2)c1 [Example 10N] )
> 200 µM

Each recorded value in this set is attributed to patent US7998965B2.
